- System: 3D7 chloroquine sensitive strain of Plasmodium falciparum
- Method Notes: antiplasmodial activity against 3D7 strain
- Type: cell-based
- Condition Parameters: read-out: in vitro antiplasmodial activity (IC50 value class)
Item-by-item account of IC50
Reported Endpoint: IC50

1) N=C(N)c1cccc(NC(=O)Nc2cccc(S(N)(=O)=O)c2)c1 | 10 to 100 µM
2) N=C(N)c1cccc(NC(=O)Nc2cccc(C(F)(F)F)c2)c1 | 1 to 10 µM
3) N=C(N)c1ccc(NC(=O)Nc2ccc(S(=O)(=O)c3ccccc3)cc2)cc1 | 1 to 10 µM
4) N=C(N)c1cccc(NC(=O)Nc2cccc([N+](=O)[O-])c2)c1 | 1 to 10 µM
5) N=C(N)c1cccc(NC(=O)Nc2cc(C(F)(F)F)cc(C(F)(F)F)c2)c1 | 1 to 10 µM
6) N=C(N)c1ccc(NC(=O)Nc2cc(C(F)(F)F)cc(C(F)(F)F)c2)cc1 | 1 to 10 µM
7) N=C(N)c1cccc(NC(=O)Nc2ccc3c(c2)S(=O)(=O)C=C3)c1 | < 1 µM
8) N=C(N)c1cccc(NC(=O)Nc2cccc(S(=O)(=O)c3ccccc3)c2)c1 | 1 to 10 µM
9) N=C(N)c1cccc(NC(=O)Nc2ccc(S(=O)(=O)c3ccccc3)cc2)c1 | 1 to 10 µM
10) N=C(N)c1cccc(NC(=O)Nc2ccc(S(=O)(=O)NCc3ccc(OC(F)(F)F)cc3)cc2)c1 | 1 to 10 µM
11) Cc1ccc(C(=O)Nc2ccc(NC(=O)Nc3cccc(C(=N)N)c3)cc2O)cc1 | 1 to 10 µM
